target: human Bradykinin B1 receptor (Homo sapiens)
procedure-summary: Calcium flux Assay (FLIPR) with cells expressing human Bradykinin B1 receptor (hB1)
condition-info: absence of 0.1% BSA in assay buffer; CHO-K1 cell line expressing human B1 receptor; agonist Lys-(Des-Arg)-Bradykinin; read-out: hB1 free IC50
pIC50: −log10 of the molar value.
observation-type: pIC50

Take a look at these entries with their results.
// query Could you tell me which pIC50 is on file for `CN(CC1CCCCC1)C(=O)c1ccc(NC(=O)C2(c3ccc(C(F)(F)F)cc3F)CC2)cc1-c1nnn[nH]1` ?
// result 6.39

// query Need pIC50 of COC(C)COC(=O)c1ccc(NC(=O)C2(c3ccc(C(F)(F)F)cc3F)CC2)cc1-c1nnn[nH]1 (racemic) , thanks.
// result 8.05

// query Can you look up the measured pIC50 of `O=C(OC1CCCCC1)c1ccc(NC(=O)C2(c3ccc(C(F)(F)F)cc3F)CC2)cc1-c1nnn[nH]1` for me?
// result 8.30

// query Consider the compound `O=C(O[C@H]1CCOC1)c1ccc(NC(=O)C2(c3ccc(C(F)(F)F)cc3F)CC2)cc1-c1nnn[nH]1` and give its measured pIC50.
// result 7.89

// query pIC50 value for entry `O=C(NC1CCOCC1)c1ccc(NC(=O)C2(c3ccc(C(F)(F)F)cc3F)CC2)cc1-c1nnn[nH]1`
// result 6.88

P = Cc1cccc([C@@H]2C[C@H]2C(=O)Nc2ccc(C(=O)OC3CCCC3)c(-c3nnn[nH]3)c2)c1 (racemic)
Q = O=C(OC1CCCC1)c1c(F)cc(NC(=O)C2(c3ccc(C(F)(F)F)cc3F)CC2)cc1-c1nnn[nH]1
R = CN(C(=O)c1ccc(NC(=O)C2(c3ccc(C(F)(F)F)cc3F)CC2)cc1-c1nnn[nH]1)C1CCCC1
S = Cc1ccc(C2(C(=O)Nc3ccc(C(=O)OC4CCCC4)c(-c4nnn[nH]4)c3)CC2)c(F)c1
T = CN(CC1CCOCC1)C(=O)c1ccc(NC(=O)C2(c3ccc(C(F)(F)F)cc3F)CC2)cc1-c1nnn[nH]1
// query Ordering criterion: pIC50; begin with the maximum. // list labels; follow requested order
// result Q, S, P, R, T

* * *

target: human Bradykinin B1 receptor (Homo sapiens)
procedure-summary: Calcium flux Assay (FLIPR) with cells expressing human Bradykinin B1 receptor (hB1)
condition-info: absence of 0.1% BSA in assay buffer; CHO-K1 cell line expressing human B1 receptor; agonist Lys-(Des-Arg)-Bradykinin; read-out: hB1 free IC50
pIC50: −log10 of the molar value.
observation-type: pIC50

1 = COC(C)(C)CNC(=O)c1ccc(NC(=O)C2(c3ccc(C(F)(F)F)cc3F)CC2)cc1-c1nnn[nH]1 [Example 52]
2 = Cc1cc(NC(=O)C2(c3ccc(C(F)(F)F)cc3F)CC2)cc(-c2nnn[nH]2)c1C(=O)OC1CCCC1 [Example 64]
// query Input pair: 1 , 2 . Output: entry with lower pIC50. Answer with the label corresponding to your selection.
// result 1
(1: 6.84, 2: 7.60)

* * *

target: human Bradykinin B1 receptor (Homo sapiens)
Sequence (P46663 1-353): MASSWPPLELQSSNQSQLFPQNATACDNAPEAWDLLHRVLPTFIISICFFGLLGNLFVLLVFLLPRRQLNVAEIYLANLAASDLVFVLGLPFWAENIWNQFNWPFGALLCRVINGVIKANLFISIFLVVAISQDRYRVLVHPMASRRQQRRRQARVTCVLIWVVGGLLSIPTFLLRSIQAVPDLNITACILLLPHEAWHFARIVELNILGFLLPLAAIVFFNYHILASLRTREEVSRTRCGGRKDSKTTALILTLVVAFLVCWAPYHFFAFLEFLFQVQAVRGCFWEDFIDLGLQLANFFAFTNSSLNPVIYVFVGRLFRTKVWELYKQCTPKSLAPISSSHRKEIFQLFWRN
procedure-summary: Calcium flux Assay (FLIPR) with cells expressing human Bradykinin B1 receptor (hB1)
condition-info: absence of 0.1% BSA in assay buffer; CHO-K1 cell line expressing human B1 receptor; agonist Lys-(Des-Arg)-Bradykinin; read-out: hB1 free IC50
pIC50: −log10 of the molar value.
observation-type: pIC50

The following compounds have reported results that may help.
// query Need pIC50, item `CC(C)COC(=O)c1ccc(NC(=O)C2(c3ccc(C(F)(F)F)cc3F)CC2)cc1-c1nnn[nH]1`
// result 8.52

// query Entry under review: `COC[C@@H](C)NC(=O)c1ccc(NC(=O)C2(c3ccc(C(F)(F)F)cc3F)CC2)cc1-c1nnn[nH]1` . Reported pIC50?
// result 7.05

1 = CC1(OC(=O)c2ccc(NC(=O)C3(c4ccc(C(F)(F)F)cc4F)CC3)cc2-c2nnn[nH]2)CCCC1
2 = O=C(OC1CCOCC1)c1ccc(NC(=O)C2(c3ccc(C(F)(F)F)cc3F)CC2)cc1-c1nnn[nH]1
// query Return label of the item with the larger pIC50. Candidates: 1 , 2 . The response must carry the label of the picked entry.
// result 2
(2: 7.66, 1: 6.00)

* * *

target: human Bradykinin B1 receptor (Homo sapiens)
procedure-summary: Calcium flux Assay (FLIPR) with cells expressing human Bradykinin B1 receptor (hB1)
condition-info: absence of 0.1% BSA in assay buffer; CHO-K1 cell line expressing human B1 receptor; agonist Lys-(Des-Arg)-Bradykinin; read-out: hB1 free IC50
pIC50: −log10 of the molar value.
observation-type: pIC50

Guide cases for pIC50, answers given:
// query Would you kindly share the measured pIC50 for CC[C@H](C)OC(=O)c1ccc(NC(=O)C2(c3ccc(OC(F)(F)F)cc3F)CC2)cc1-c1nnn[nH]1 [Example 27] ?
// result 8.70

// query Bench note: what pIC50 did CCOC(=O)c1ccc(NC(=O)C2(c3cccc(Cl)c3)CC2)cc1-c1nnn[nH]1 [Example 1] show?
// result 6.87

// query Request the reported pIC50 associated with CN(C(=O)c1ccc(NC(=O)C2(c3ccc(C(F)(F)F)cc3F)CC2)cc1-c1nnn[nH]1)C1CCCCC1 [Example 43]
// result 7.30

// query Item under review: O=C(NC1CCCCC1)c1ccc(NC(=O)C2(c3ccc(C(F)(F)F)cc3F)CC2)cc1-c1nnn[nH]1 [Example 42] . Reported pIC50?
// result 7.47

// query Which value of pIC50 has been reported for O=C(O[C@@H]1CCOC1)c1ccc(NC(=O)C2(c3ccc(C(F)(F)F)cc3F)CC2)cc1-c1nnn[nH]1 [Example 20] in the records?
// result 7.85

I = CN1CCC(OC(=O)c2ccc(NC(=O)C3(c4ccc(C(F)(F)F)cc4F)CC3)cc2-c2nnn[nH]2)CC1 [Example 23]
II = O=C(OCC1CCOCC1)c1ccc(NC(=O)C2(c3ccc(C(F)(F)F)cc3F)CC2)cc1-c1nnn[nH]1 [Example 22]
III = Cc1ccc(NC(=O)c2ccc(NC(=O)C3(c4ccc(C(F)(F)F)cc4F)CC3)cc2-c2nnn[nH]2)cn1 [Example 57]
IV = Cc1ccc(NC(=O)c2ccc(NC(=O)C3(c4ccc(C(F)(F)F)cc4F)CC3)cc2-c2nnn[nH]2)nc1 [Example 56]
V = CN(C(=O)c1ccc(NC(=O)C2(c3cccc(Cl)c3)CC2)cc1-c1nnn[nH]1)C1CCCC1 [Example 40]
// query Rank descending by pIC50. Hello, could you send the labels back in the order asked? Thank you.
// result II, III, IV, I, V

a = O=C(NCC1CCCCC1)c1ccc(NC(=O)C2(c3ccc(C(F)(F)F)cc3F)CC2)cc1-c1nnn[nH]1 [Example 44]
b = Cc1ccc(NC(=O)c2c(C)cc(NC(=O)C3(c4ccc(C(F)(F)F)cc4F)CC3)cc2-c2nnn[nH]2)nc1 [Example 66]
// query Pick one: a or b . Which has the bigger pIC50 number? Indicate which entry you chose by stating its label.
// result a

I = CC(C)(C)COC(=O)c1ccc(NC(=O)C2(c3ccc(C(F)(F)F)cc3F)CC2)cc1-c1nnn[nH]1 [Example 29]
II = CC[C@H](C)OC(=O)c1ccc(NC(=O)C2(c3ccc(C(F)(F)F)cc3F)CC2)cc1-c1nnn[nH]1 [Example 25]
III = CC[C@@H](C)NC(=O)c1ccc(NC(=O)C2(c3ccc(C(F)(F)F)cc3F)CC2)cc1-c1nnn[nH]1 [Example 37]
IV = CCC(C)N(C)C(=O)c1ccc(NC(=O)C2(c3ccc(C(F)(F)F)cc3F)CC2)cc1-c1nnn[nH]1 (single isomer, unassigned) [Example 58]
// query Please list these in order of increasing pIC50. Thank you! Rank them, then answer with their labels in that order.
// result IV, III, I, II

* * *

target: human Bradykinin B1 receptor (Homo sapiens, UniProt P46663)
procedure-summary: Calcium flux Assay (FLIPR) with cells expressing human Bradykinin B1 receptor (hB1)
condition-info: absence of 0.1% BSA in assay buffer; CHO-K1 cell line expressing human B1 receptor; agonist Lys-(Des-Arg)-Bradykinin; read-out: hB1 free IC50
observation-type: IC50 (nM)

Field: example entries. Status: answers known.
// query Notebook: pull reported IC50 for human Bradykinin B1 receptor (Homo sapiens, UniProt P46663), entry O=C(OC1CCOC1)c1ccc(NC(=O)C2(c3ccc(C(F)(F)F)cc3F)CC2)cc1-c1nnn[nH]1 (racemic)
// result 7

// query Please state recorded IC50 (tested on human Bradykinin B1 receptor (Homo sapiens, UniProt P46663)) of `Cc1cc(NC(=O)C2(c3ccc(C(F)(F)F)cc3F)CC2)cc(-c2nnn[nH]2)c1C(=O)O[C@H]1CCOC1`
// result 62

1 = O=C(NCC1CCOCC1)c1ccc(NC(=O)C2(c3ccc(C(F)(F)F)cc3F)CC2)cc1-c1nnn[nH]1
2 = CCOC(=O)c1c(F)cc(NC(=O)C2(c3ccc(C(F)(F)F)cc3F)CC2)cc1-c1nnn[nH]1
3 = O=C(OC1CCCC1)c1ccc(NC(=O)C2(c3ccc(C(F)(F)F)cc3F)CC2)cc1-c1nnn[nH]1
4 = CCC(C)(C)OC(=O)c1ccc(NC(=O)C2(c3ccc(C(F)(F)F)cc3F)CC2)cc1-c1nnn[nH]1
5 = CC(C)CN(C)C(=O)c1ccc(NC(=O)C2(c3ccc(C(F)(F)F)cc3F)CC2)cc1-c1nnn[nH]1
// query Given 5 compounds, produce a descending ranking by IC50. Please write the labels in the order that was asked for.
// result 4, 5, 1, 3, 2
(4: 5220 nM, 5: 1770 nM, 1: 60 nM, 3: 9 nM, 2: 5 nM)
